Target: FGFR3 (UniProt P22607)
Sequence (P22607 whole entry, looked up): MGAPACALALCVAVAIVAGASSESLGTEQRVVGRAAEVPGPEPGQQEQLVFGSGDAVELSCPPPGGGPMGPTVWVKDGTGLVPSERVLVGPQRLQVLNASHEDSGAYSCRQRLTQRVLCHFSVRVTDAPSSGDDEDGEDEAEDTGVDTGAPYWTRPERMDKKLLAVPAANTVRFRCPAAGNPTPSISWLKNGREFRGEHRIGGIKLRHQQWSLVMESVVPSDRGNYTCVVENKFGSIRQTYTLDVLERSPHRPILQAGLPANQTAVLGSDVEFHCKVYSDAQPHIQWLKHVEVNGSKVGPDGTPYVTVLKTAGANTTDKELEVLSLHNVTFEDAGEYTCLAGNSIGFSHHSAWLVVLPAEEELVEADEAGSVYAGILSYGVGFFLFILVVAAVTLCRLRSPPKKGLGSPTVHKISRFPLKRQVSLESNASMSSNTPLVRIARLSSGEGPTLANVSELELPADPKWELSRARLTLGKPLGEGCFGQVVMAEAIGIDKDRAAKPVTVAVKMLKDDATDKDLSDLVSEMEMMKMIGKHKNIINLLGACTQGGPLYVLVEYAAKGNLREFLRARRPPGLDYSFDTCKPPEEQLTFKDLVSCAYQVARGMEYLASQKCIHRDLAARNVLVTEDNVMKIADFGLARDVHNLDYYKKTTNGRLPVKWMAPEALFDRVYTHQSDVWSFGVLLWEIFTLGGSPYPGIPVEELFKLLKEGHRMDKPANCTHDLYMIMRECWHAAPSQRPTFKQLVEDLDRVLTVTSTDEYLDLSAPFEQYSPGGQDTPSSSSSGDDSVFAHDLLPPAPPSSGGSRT
Assay: phosphorylation enrichment, bacterial display (enrichment ratio); higher = better substrate or ligand; peptides without Tyr show the background
parameter: phosphorylation enrichment

Q: Provide phosphorylation enrichment, tested on FGFR3 (UniProt P22607), for GGCQEYTGAPY [NAXD_Y85] .
Result: 0.843

Q: Provide phosphorylation enrichment, tested on FGFR3 (UniProt P22607), for GPQGVYSNKLV [PTPN14_Y506] .
Result: 0.51

Q: Provide phosphorylation enrichment, tested on FGFR3 (UniProt P22607), for IAKNPYDPPGR .
Result: 0.48

Q: Provide phosphorylation enrichment, tested on FGFR3 (UniProt P22607), for SVTCTHSPALN [TP53_Y126_Y126H] .
Result: 0.612

Q: Provide phosphorylation enrichment, tested on FGFR3 (UniProt P22607), for SLLTDCSPQLQ [OTC_Y345_Y345C] .
Result: 0.707

Q: Provide phosphorylation enrichment, tested on FGFR3 (UniProt P22607), for SLFPGYNFRFA [P2RX7_Y291_YF] .
Result: 0.736

Q: Provide phosphorylation enrichment, tested on FGFR3 (UniProt P22607), for SHTPSYCDESL [RITA1_Y109] .
Result: 0.516

Q: Provide phosphorylation enrichment, tested on FGFR3 (UniProt P22607), for NQILPYIKELV [PPP2R1B_Y341] .
Result: 0.774

Q: Provide phosphorylation enrichment, tested on FGFR3 (UniProt P22607), for GMEIVYVYVKK [DNAI2_Y5] .
Result: 1.1

Q: Provide phosphorylation enrichment, tested on FGFR3 (UniProt P22607), for IGVDSYSVCKR [RPS6KA3_Y433_G431D] .
Result: 0.405

Q: Provide phosphorylation enrichment, tested on FGFR3 (UniProt P22607), for KGKLIYLLGDS [NXPE1_Y350] .
Result: 0.521

Q: Provide phosphorylation enrichment, tested on FGFR3 (UniProt P22607), for LCHELYNTIRD [PBRM1_Y54_V49L] .
Result: 0.905

Q: Provide phosphorylation enrichment, tested on FGFR3 (UniProt P22607), for KPNMNYDKLSW [FLI1_Y332_R337W] .
Result: 0.59

Q: Provide phosphorylation enrichment, tested on FGFR3 (UniProt P22607), for RRIHSYRGHLC [VHL_Y112_W117C] .
Result: 0.733

----------
Test system: AncSZ
Assay: phosphorylation enrichment, bacterial display (enrichment ratio); higher = better substrate or ligand; peptides without Tyr show the background
parameter: phosphorylation enrichment

Q: Query phosphorylation enrichment for GKLIFYDLRGE [KARS1_Y145]
Result: 1.02

Q: Query phosphorylation enrichment for RMDGKYACSYT [FLNB_Y704_T703K]
Result: 0.899

Q: Query phosphorylation enrichment for WFPSTYVEEDE [VAV3_Y842]
Result: 1.43

Q: Query phosphorylation enrichment for CNRADYSKLAP [GNE_Y22]
Result: 0.749

Q: Query phosphorylation enrichment for IKKFKYGIEEH [GJA1_Y137]
Result: 0.836

Q: Query phosphorylation enrichment for RPSRQYATRDV [SCAMP3_Y35_L38R]
Result: 0.598

Q: Query phosphorylation enrichment for KVDKEYEVGVR [GHR_Y226_R229G]
Result: 0.752

Q: Query phosphorylation enrichment for ASMAKYFASGI [ACADSB_Y372_E376G_YF]
Result: 0.544

Q: Query phosphorylation enrichment for TRDVNYGWIIR [MT-CYB_Y75]
Result: 0.997

Q: Query phosphorylation enrichment for ERDYTYDELLN [EIF2S2_Y176_E177D]
Result: 1.17

Q: Query phosphorylation enrichment for YSMGCYEIYLG [HMGCL_Y198_S201Y]
Result: 4.43

Q: Query phosphorylation enrichment for PEADKYCLTFA [FGG_Y300_R301C_YF]
Result: 1.33

Q: Query phosphorylation enrichment for PSQRRYLYYYS [PTEN_Y174_V175L]
Result: 1.77

----------
I'd appreciate it if you could supply phosphorylation enrichment values for the items below.
Test system: c-Abl (mouse)
Assay: phosphorylation enrichment, bacterial display (enrichment ratio); higher = better substrate or ligand; peptides without Tyr show the background
API note: the answer field is a bare number with no unit suffix.

Q: Provide phosphorylation enrichment, tested on c-Abl (mouse), for QWRTKYETDTI [MYH7_Y1375_A1379T] .
Result: 0.798

Q: Provide phosphorylation enrichment, tested on c-Abl (mouse), for IGCHAYGDQFR [IDH1_Y135_R132C_YF] .
Result: 0.82

Q: Provide phosphorylation enrichment, tested on c-Abl (mouse), for AFRHGYFDEEM [PLEC_Y2971_R2969H_YF] .
Result: 0.806

----------
Target: SHP2-C SH2
Test: SH2 binding enrichment of the phosphorylated peptide, bacterial display (enrichment ratio); higher = better substrate or ligand; peptides without Tyr show the background
parameter: SH2 binding enrichment
API note: the answer field is a bare number with no unit suffix.

Q: Provide SH2 binding enrichment, tested on SHP2-C SH2, for VKPENYRRPDI [VHL_Y175_L178P] .
Result: 0.647

Q: Provide SH2 binding enrichment, tested on SHP2-C SH2, for ISKKHYAGLLF [POLD1_Y809_R808H] .
Result: 12.4

Q: Provide SH2 binding enrichment, tested on SHP2-C SH2, for LGKGSYAKVRS [TSSK2_Y23_K27R] .
Result: 2.14

Q: Provide SH2 binding enrichment, tested on SHP2-C SH2, for LHQSTYQCYDV [SLC7A14_Y693_R695C] .
Result: 0.513

Q: Provide SH2 binding enrichment, tested on SHP2-C SH2, for AFPGEYIPTVF [RAC1_Y32] .
Result: 0.723

Q: Provide SH2 binding enrichment, tested on SHP2-C SH2, for WGLRSYYETSK [MAGED2_Y448] .
Result: 0.775

Q: Provide SH2 binding enrichment, tested on SHP2-C SH2, for VVFIKYLPEWT [PSEN1_Y240_L235V] .
Result: 1.64

Q: Provide SH2 binding enrichment, tested on SHP2-C SH2, for RFLERYIFNRQ [HLA-DPB1_Y57_E62Q_YF] .
Result: 0.833

Q: Provide SH2 binding enrichment, tested on SHP2-C SH2, for EVLKNYNQQKD [GOLGA4_Y1551] .
Result: 0.669

Q: Provide SH2 binding enrichment, tested on SHP2-C SH2, for STEAIYWRFSK [SH3PXD2B_Y42_R43W_YF] .
Result: 0.495

Q: Provide SH2 binding enrichment, tested on SHP2-C SH2, for MAALSYVSEIG [BPIFB2_Y36_K31M] .
Result: 0.857

Q: Provide SH2 binding enrichment, tested on SHP2-C SH2, for MRTMGYMPREM [CABP5_Y62_T65R] .
Result: 0.576

Q: Provide SH2 binding enrichment, tested on SHP2-C SH2, for CTTIHYNYMCD [TP53_Y234_N239D] .
Result: 2.32

Q: Provide SH2 binding enrichment, tested on SHP2-C SH2, for QRKPSYNQLAS [BRCA2_Y71] .
Result: 1.14

Q: Provide SH2 binding enrichment, tested on SHP2-C SH2, for SQSPHYFRSGR [GPATCH8_Y1038] .
Result: 0.411

Q: Provide SH2 binding enrichment, tested on SHP2-C SH2, for VHKKGYNKLNQ [ZNF676_Y98_E96K] .
Result: 0.885

Q: Provide SH2 binding enrichment, tested on SHP2-C SH2, for LLGFLYFFVCS [SLC34A2_Y109] .
Result: 1.22

Q: Provide SH2 binding enrichment, tested on SHP2-C SH2, for NQKGKYFNVER [ANAPC4_Y469_R465Q] .
Result: 1.03

Q: Provide SH2 binding enrichment, tested on SHP2-C SH2, for KWHREYNFKYV [RICTOR_Y835_S837F] .
Result: 1.35

Q: Provide SH2 binding enrichment, tested on SHP2-C SH2, for LRYDVYGGENE [STOX1_Y610_E608D] .
Result: 0.675

Q: Provide SH2 binding enrichment, tested on SHP2-C SH2, for EARRVYRDIIH [ALDH5A1_Y175_G176R] .
Result: 0.75

Q: Provide SH2 binding enrichment, tested on SHP2-C SH2, for TGEKPYECVQC [ZNF24_Y335] .
Result: 1.06

Q: Provide SH2 binding enrichment, tested on SHP2-C SH2, for YAFQLYDLDPD [CHP2_Y123_R127P] .
Result: 1.71

Q: Provide SH2 binding enrichment, tested on SHP2-C SH2, for VAFLFYKSIGP [ADGRL4_Y302_V300L_YF] .
Result: 0.457

Q: Provide SH2 binding enrichment, tested on SHP2-C SH2, for CTTIHSNYMCN [TP53_Y234_Y234S] .
Result: 1.39

Q: Provide SH2 binding enrichment, tested on SHP2-C SH2, for NGRQCYSCKGN [PLAUR_Y217] .
Result: 0.908

Q: Provide SH2 binding enrichment, tested on SHP2-C SH2, for RFLRGYQQDAF [HLA-A_Y137_R138Q_YF] .
Result: 0.581

Q: Provide SH2 binding enrichment, tested on SHP2-C SH2, for NTFENYWPFFQ [GATM_Y103_K102N_YF] .
Result: 0.949

Q: Provide SH2 binding enrichment, tested on SHP2-C SH2, for RNPLRYTSILT [OR51B6_Y130_S126N] .
Result: 3.4

Q: Provide SH2 binding enrichment, tested on SHP2-C SH2, for WEQELYSQLVF [WAS_Y102_YF] .
Result: 0.818

Q: Provide SH2 binding enrichment, tested on SHP2-C SH2, for IDDNQYAFLKA [HNF4A_Y286_E285Q_YF] .
Result: 0.631

Q: Provide SH2 binding enrichment, tested on SHP2-C SH2, for DDPRTYQKFGF [OAS1_Y362_R361T_YF] .
Result: 0.531

Q: Provide SH2 binding enrichment, tested on SHP2-C SH2, for ADFFDYGRGLS [KHDRBS3_Y304_H306R_YF] .
Result: 0.554

Q: Provide SH2 binding enrichment, tested on SHP2-C SH2, for EASGIYVKSVI [PATJ_Y396_I400V] .
Result: 0.55

Q: Provide SH2 binding enrichment, tested on SHP2-C SH2, for SVTCTYSPDLN [TP53_Y126_A129D] .
Result: 0.856

Q: Provide SH2 binding enrichment, tested on SHP2-C SH2, for HDRNTYEKFLE [TF_Y666_G671E_YF] .
Result: 0.639

Q: Provide SH2 binding enrichment, tested on SHP2-C SH2, for SLLTDYSPQLQ [OTC_Y345] .
Result: 0.918

Q: Provide SH2 binding enrichment, tested on SHP2-C SH2, for CNSFQYGGGGG [NPPA_Y151_R150Q] .
Result: 0.806

Q: Provide SH2 binding enrichment, tested on SHP2-C SH2, for SVCPDYDLCSV [SQSTM1_Y148] .
Result: 1.07

Q: Provide SH2 binding enrichment, tested on SHP2-C SH2, for FAFQLYDLDPD [CHP2_Y123_R127P_YF] .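 Further: peptide library displayed on the E. coli surface as eCPX fusions, selected cells deep-sequenced, score is each peptide's frequency after selection divided by its frequency in the input.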
Result: 0.999
